- tested.target: BRC4–RAD51 interaction (Homo sapiens, UniProt Q06609)
- Construct: purchased Creative Biomart (RAD51); Life Technologies (BRC4 peptide)
- Sequence (Q06609 whole entry): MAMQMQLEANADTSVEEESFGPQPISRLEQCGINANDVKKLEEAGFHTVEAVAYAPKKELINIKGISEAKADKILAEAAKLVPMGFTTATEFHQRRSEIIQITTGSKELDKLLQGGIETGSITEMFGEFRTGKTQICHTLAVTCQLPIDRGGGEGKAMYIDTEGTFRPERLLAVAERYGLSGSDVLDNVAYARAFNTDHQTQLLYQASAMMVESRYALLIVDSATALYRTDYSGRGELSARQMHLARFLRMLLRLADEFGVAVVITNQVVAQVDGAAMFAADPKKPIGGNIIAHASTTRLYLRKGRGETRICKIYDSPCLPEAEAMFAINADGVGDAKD
- protocol.description: Competitive biochemical ELISA assay (biotinylated BRC4 peptide vs RAD51)
- Assay type: binding
- run.parameters: competition with BRC4 for RAD51; triplicate, ± standard deviation; NA = not active; racemic mixtures unless enantiomer named; read-out: EC50 (μM) on ELISA assay
# log10 of EC50 values compiled below
Units before log transform: µM; reported quantity: EC50; transform: log10.

Solved cases below.
[
  {
    "compound": "O=C(O)CCC(=O)N1N=C(c2c(-c3ccccc3)c3cc(Cl)ccc3[nH]c2=O)CC1c1ccc(F)cc1 (stereo not shown)",
    "recorded.measurement": 1.20
  },
  {
    "compound": "CC(=O)N1N=C(c2c(-c3ccccc3)c3cc(Cl)ccc3[nH]c2=O)CC1c1ccc(F)cc1 (stereo not shown)",
    "recorded.measurement": 1.70
  },
  {
    "compound": "O=C(O)CCC(=O)N1N=C(c2c(-c3ccccc3)c3cc(Cl)ccc3[nH]c2=O)CC1c1ccc(-c2ccc(F)cc2)cc1 (stereo not shown) [Compound 18d]",
    "recorded.measurement": 1.11
  },
  {
    "compound": "CCn1ccc2cc(C3CC(c4c(-c5ccccc5)c5cc(Cl)ccc5[nH]c4=O)=NN3C(=O)CCC(=O)O)ccc21 (stereo not shown) [Compound 23d]",
    "recorded.measurement": 1.00
  },
  {
    "compound": "CC(=O)N1N=C(c2c(-c3ccccc3)c3cc(Cl)ccc3[nH]c2=O)CC1c1ccc(-c2ccc(Br)cc2)cc1 (stereo not shown) [Compound 43d]",
    "recorded.measurement": 1.85
  }
]

Lookup: log10 of EC50 / BRC4–RAD51 interaction (Homo sapiens, UniProt Q06609) / O=C(O)CCC(=O)N1N=C(c2c(-c3ccccc3)c3cc(Cl)ccc3[nH]c2=O)CC1c1ccc(Br)cc1 (stereo not shown) [Compound 12d]
1.20

Lookup: log10 of EC50 / BRC4–RAD51 interaction (Homo sapiens, UniProt Q06609) / CCCn1ncc2cc(C3CC(c4c(-c5ccccc5)c5cc(Cl)ccc5[nH]c4=O)=NN3C(C)=O)ccc21 (stereo not shown) [Compound 49d]
-0.02

---

- tested.target: BRC4–RAD51 interaction (Homo sapiens, UniProt Q06609)
- Construct: purchased Creative Biomart (RAD51); Life Technologies (BRC4 peptide)
- protocol.description: Competitive biochemical ELISA assay (biotinylated BRC4 peptide vs RAD51)
- Format: binding
- run.parameters: Table 2, compounds selected for cell-based study; read-out: EC50 ELISA
assay.readout: pEC50
# reply with the number alone; pEC50 is -log10 of concentration in mol/L

[
  {
    "molecule": "CCCn1ncc2cc(C3CC(c4c(-c5ccccc5)c5cc(Cl)ccc5[nH]c4=O)=NN3C(C)=O)ccc21 (stereo not shown) [Compound 49d]",
    "pEC50": 6.02
  },
  {
    "molecule": "Cn1ccc2cc(C3CC(c4c(-c5ccccc5)c5cc(Cl)ccc5[nH]c4=O)=NN3C(=O)CCC(=O)O)ccc21 (stereo not shown) [Compound 22d]",
    "pEC50": 5.70
  },
  {
    "molecule": "CCC(=O)N1N=C(c2c(-c3ccccc3)c3cc(Cl)ccc3[nH]c2=O)CC1c1ccc(OC)cc1 (stereo not shown) [Compound 35d]",
    "pEC50": 4.72
  }
]

Kindly review the next molecule as well.
Lookup: pEC50 / BRC4–RAD51 interaction (Homo sapiens, UniProt Q06609) / O=C(O)CCC(=O)N1N=C(c2c(-c3ccccc3)c3cc(Cl)ccc3[nH]c2=O)CC1c1ccc(-c2ccc(F)cc2)cc1 (stereo not shown) [Compound 18d]
4.89

---

- tested.target: BRC4–RAD51 interaction (Homo sapiens)
- Construct: purchased Creative Biomart (RAD51); Life Technologies (BRC4 peptide)
- protocol.description: Competitive biochemical ELISA assay (biotinylated BRC4 peptide vs RAD51)
- Type: binding
- run.parameters: Table 2, compounds selected for cell-based study; read-out: EC50 ELISA
# pEC50 values compiled below
# reply with the number alone; pEC50 is -log10 of concentration in mol/L

Solved cases below.
[
  {
    "molecule": "CCn1ccc2cc(C3CC(c4c(-c5ccccc5)c5cc(Cl)ccc5[nH]c4=O)=NN3C(=O)CCC(=O)O)ccc21 (centres unmarked) [Compound 23d]",
    "assay.readout": "pEC50",
    "recorded.measurement": 5.00
  },
  {
    "molecule": "CC(=O)N1N=C(c2c(-c3ccccc3)c3cc(Cl)ccc3[nH]c2=O)CC1c1ccc(Cl)cc1 (centres unmarked) [Compound 36d]",
    "assay.readout": "pEC50",
    "recorded.measurement": 5.00
  },
  {
    "molecule": "O=C(O)CCC(=O)N1N=C(c2c(-c3ccccc3)c3cc(Cl)ccc3[nH]c2=O)CC1c1ccc(Br)cc1 (centres unmarked) [Compound 12d]",
    "assay.readout": "pEC50",
    "recorded.measurement": 4.80
  }
]

// pEC50 lookup, key: CCn1cc2cc(-c3ccc(C4CC(c5c(-c6ccccc6)c6cc(Cl)ccc6[nH]c5=O)=NN4C(=O)CCC(=O)O)cc3)ccc2n1 (centres unmarked) [Compound 31d]
4.77

// pEC50 lookup, key: CCn1ncc2cc(-c3ccc(C4CC(c5c(-c6ccccc6)c6cc(Cl)ccc6[nH]c5=O)=NN4C(=O)CCC(=O)O)cc3)ccc21 (centres unmarked) [Compound 30d]
4.82
